Molecular target: recombinant human GM-CSF protein (human, UniProt P04141 18-144)
Sequence (P04141 18-144): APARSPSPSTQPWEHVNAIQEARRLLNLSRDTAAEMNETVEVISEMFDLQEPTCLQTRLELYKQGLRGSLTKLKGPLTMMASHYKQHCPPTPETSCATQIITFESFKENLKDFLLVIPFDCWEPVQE
Assay: ELISA
The entries below come with measured pEC50 values attached.
Please report pEC50 as the negative decimal logarithm of the molar concentration, giving only the number.

Solved cases (3 shown):
Binder	pEC50
Hu50C5-11 (antibody, V domains shown) VH: EVQLVQSGAEVKKPGSSVKVSCKASGYIFSPYSIHWVRQAPGQGLEWIGYINPSTGYIEYNQHFKDRVTITADKSTSTAYMELRSLRSEDTAVYYCARGGDYEGYFDYWGQGTTVTVSS VL: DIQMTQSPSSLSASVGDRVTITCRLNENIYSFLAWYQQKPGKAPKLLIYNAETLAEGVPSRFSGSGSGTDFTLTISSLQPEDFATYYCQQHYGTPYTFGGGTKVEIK	9.33
Hu50C5-1 (antibody, V domains shown) VH: EVQLVQSGAEVKKPGSSVKVSCKASGGTFSPYSIHWVRQAPGQGLEWMGYINPSTGYIEYNQHFKDRVTITADKSTSTAYMELRSLRSEDTAVYYCARGGDYEGYFDYWGQGTTVTVSS VL: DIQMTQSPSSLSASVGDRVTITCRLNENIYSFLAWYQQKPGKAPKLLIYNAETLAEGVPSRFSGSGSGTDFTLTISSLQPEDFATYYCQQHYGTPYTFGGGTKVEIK	8.56
Hu50C5-7 (antibody, V domains shown) VH: EVQLVQSGAEVKKPGSSVKVSCKASGYIFSPYSIHWVRQAPGQGLEWMGYINPSTGYIEYNQHFKDRVTITADKSTSTAYMELRSLRSEDTAVYYCARGGDYEGYFDYWGQGTTVTVSS VL: DIQMTQSPSSLSASVGDRVTITCRLNENIYSFLAWYQQKPGKAPKLLVYNAETLAEGVPSRFSGSGSGTDFTLTISSLQPEDFATYYCQQHYGTPYTFGGGTKVEIK	9.07

# pEC50 (binder: Hu50C5-6 (antibody, V domains shown) VH: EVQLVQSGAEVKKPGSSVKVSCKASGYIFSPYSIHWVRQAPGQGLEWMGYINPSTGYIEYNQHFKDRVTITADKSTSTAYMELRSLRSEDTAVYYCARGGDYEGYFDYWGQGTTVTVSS VL: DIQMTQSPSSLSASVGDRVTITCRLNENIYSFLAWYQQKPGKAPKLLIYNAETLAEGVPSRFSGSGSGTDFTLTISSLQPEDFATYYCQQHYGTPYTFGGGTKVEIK ) is 9.46
